- Experiment summary: Tmax in Sprague-Dawley rat at 5 mg/kg, po by LC-MS/MS method
- Assay type: ADME, organism-based
- Conditions used: in vivo
Observable: Tmax (h)
Report the value in h with no unit label.

Q. Tell me measured Tmax for "CS(=O)(=O)O.Cc1cc(Nc2ncc(Cl)c(Nc3cn(C)nc3S(=O)(=O)C(C)C)n2)c(OC(C)C)cc1C1CCN(C)CC1" please.
A. 6.7

---

- Experiment summary: Cmax in beagle dog at 3 mg/kg, po by LC-MS/MS method
- Assay type: ADME, organism-based, Canis lupus familiaris
- Set-up: dose 3 mg/kg, route oral
- Conditions used: in vivo
Observable: Cmax

Q. Tell me measured Cmax for "CS(=O)(=O)O.Cc1cc(Nc2ncc(Cl)c(Nc3cn(C)nc3S(=O)(=O)C(C)C)n2)c(OC(C)C)cc1C1CCN(C)CC1" please.
A. 85.8 ng/mL

---

- Experiment summary: AUC (0 to infinity) in Sprague-Dawley rat at 5 mg/kg, po by LC-MS/MS method
- Type: ADME, organism-based
- Design: dose 5 mg/kg, time infinity, route oral
- Conditions used: in vivo
Observable: AUC(0-inf)
Answer shape: numeric part, then the unit.

Q. Tell me measured AUC(0-inf) for "CS(=O)(=O)O.Cc1cc(Nc2ncc(Cl)c(Nc3cn(C)nc3S(=O)(=O)C(C)C)n2)c(OC(C)C)cc1C1CCN(C)CC1" please.
A. 3120 ng·h/mL

---

- Experiment summary: Oral bioavailability in beagle dog at 3 mg/kg by LC-MS/MS method
- Type: ADME, organism-based, Canis lupus familiaris
- Conditions used: in vivo
Observable: bioavailability (%)
Report the value in % with no unit label.

Q. Tell me measured bioavailability for "CS(=O)(=O)O.Cc1cc(Nc2ncc(Cl)c(Nc3cn(C)nc3S(=O)(=O)C(C)C)n2)c(OC(C)C)cc1C1CCN(C)CC1" please.
A. 49.2

---

- Tested on: ALK tyrosine kinase receptor (Homo sapiens, UniProt Q9UM73, L1196M)
- Sequence (Q9UM73 19-1620 L1196M limits assumed): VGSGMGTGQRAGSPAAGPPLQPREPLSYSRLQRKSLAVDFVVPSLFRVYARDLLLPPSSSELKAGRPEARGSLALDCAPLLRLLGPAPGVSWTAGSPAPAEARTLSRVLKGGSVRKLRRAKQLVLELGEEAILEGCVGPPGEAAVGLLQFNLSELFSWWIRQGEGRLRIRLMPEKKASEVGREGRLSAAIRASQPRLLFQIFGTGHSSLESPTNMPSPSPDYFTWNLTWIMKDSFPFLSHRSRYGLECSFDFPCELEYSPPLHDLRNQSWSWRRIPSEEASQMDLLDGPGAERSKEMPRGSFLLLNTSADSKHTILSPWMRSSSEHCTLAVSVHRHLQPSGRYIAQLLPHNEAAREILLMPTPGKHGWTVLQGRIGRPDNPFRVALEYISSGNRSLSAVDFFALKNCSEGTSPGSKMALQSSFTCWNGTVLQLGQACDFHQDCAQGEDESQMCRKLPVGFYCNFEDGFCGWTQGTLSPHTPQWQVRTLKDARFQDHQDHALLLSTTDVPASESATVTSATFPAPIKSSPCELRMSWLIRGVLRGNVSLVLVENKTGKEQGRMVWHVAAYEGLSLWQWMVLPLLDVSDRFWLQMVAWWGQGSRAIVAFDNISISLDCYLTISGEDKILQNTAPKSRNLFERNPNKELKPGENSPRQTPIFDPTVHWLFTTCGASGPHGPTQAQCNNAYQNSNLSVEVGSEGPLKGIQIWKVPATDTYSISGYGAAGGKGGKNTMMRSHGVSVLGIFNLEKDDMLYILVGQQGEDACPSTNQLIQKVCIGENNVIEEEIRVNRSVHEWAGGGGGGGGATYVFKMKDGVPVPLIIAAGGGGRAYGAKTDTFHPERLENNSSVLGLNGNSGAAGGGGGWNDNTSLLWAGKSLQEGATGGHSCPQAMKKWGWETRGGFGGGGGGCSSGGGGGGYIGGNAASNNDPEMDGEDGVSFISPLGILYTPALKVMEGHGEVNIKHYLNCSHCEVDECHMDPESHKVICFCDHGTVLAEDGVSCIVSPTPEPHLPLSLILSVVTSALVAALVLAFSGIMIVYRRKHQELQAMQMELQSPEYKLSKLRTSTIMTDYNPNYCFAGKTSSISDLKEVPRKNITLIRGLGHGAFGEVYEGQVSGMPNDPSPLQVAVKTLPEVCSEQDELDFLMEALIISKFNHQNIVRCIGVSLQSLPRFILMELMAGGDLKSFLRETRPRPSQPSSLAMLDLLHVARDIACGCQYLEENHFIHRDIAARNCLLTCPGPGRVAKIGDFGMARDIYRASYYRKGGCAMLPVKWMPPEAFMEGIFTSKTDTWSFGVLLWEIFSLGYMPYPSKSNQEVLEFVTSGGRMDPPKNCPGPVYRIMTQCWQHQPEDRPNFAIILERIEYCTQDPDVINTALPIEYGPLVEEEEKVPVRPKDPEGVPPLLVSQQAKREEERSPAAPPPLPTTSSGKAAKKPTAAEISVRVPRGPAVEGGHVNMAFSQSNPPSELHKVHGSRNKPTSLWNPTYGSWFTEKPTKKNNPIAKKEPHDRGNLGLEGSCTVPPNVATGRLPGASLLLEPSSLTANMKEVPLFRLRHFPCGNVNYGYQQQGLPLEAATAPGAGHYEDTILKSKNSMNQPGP
- Experiment summary: Inhibition of ALK L1196M mutant (unknown origin) using TK substrate-biotin incubated for 30 mins by HTRF assay
Observable: IC50 (nM)
Report the value in nM with no unit label.

Use these answered entries as a reference point.
Compound: CCNC(=O)N1CCC(c2cc(OC3CC3)c(Nc3ncc(Cl)c(Nc4cn(C)nc4S(=O)(=O)C(C)C)n3)cc2C)CC1
Unit label: nM
IC50: 6
--
Compound: Cc1cc(Nc2ncc(Cl)c(Nc3cn(C)nc3S(=O)(=O)C(C)C)n2)c(OC(C)C)cc1C1CN(C)C1
Unit label: nM
IC50: 5
--
Compound: Cc1cc(Nc2ncc(Cl)c(Nc3cn(C)nc3S(=O)(=O)C(C)C)n2)c(OC(C)C)cc1C1CCNCC1
Unit label: nM
IC50: 20
--
Compound: Cc1cc(Nc2ncc(Cl)c(Nc3cn(C)nc3S(=O)(=O)C(C)C)n2)c(OC2CC2)cc1C1CCCN(C)C1 (stereo not given)
Unit label: nM
IC50: 7

Turning to the following compound.
Q. Tell me measured IC50 for "Cc1cc(Nc2ncc(Cl)c(Nc3cn(C)nc3S(=O)(=O)C(C)C)n2)c(OC2CC2)cc1C1CCN(C(=O)C(C)C)CC1" please.
A. 29

---

- Experiment summary: AUC (0 to infinity) in beagle dog at 1 mg/kg, iv by LC-MS/MS method
- Type: ADME, organism-based, Canis lupus familiaris
- Parameters: dose 1 mg/kg, route intravenous, time infinity
- Conditions used: in vivo
Observable: AUC(0-inf) (ng·h/mL)
Report the value in ng·h/mL with no unit label.

Q. Tell me measured AUC(0-inf) for "CS(=O)(=O)O.Cc1cc(Nc2ncc(Cl)c(Nc3cn(C)nc3S(=O)(=O)C(C)C)n2)c(OC(C)C)cc1C1CCN(C)CC1" please.
A. 637
